target: TLR7/NFKb HEK cells (Homo sapiens, UniProt Q9NYK1)
Construct: expressed in transfected cells; host or cells: HEK cells (TLR7/NFKb reporter line)
protocolNotes: HEK Cell Assay (TLR7/NFKb reporter, Steady-Glo luciferase readout)
Format: cell-based
assaySetup: 30 min compound preincubation, then R*48 agonist for 5 hours, read-out: Potency
Procedure: Example 142: HEK Cell Assay Into 384 CulturePlates (Corning 3707) was placed 5000 c/w of TLR7/NFKb HEK cells in 30 uL DMEM without Phenil red (gibco #31053) and 10% i.a. FCS and 2 mM L-ZGLutamin. The cells were incubated for 24 h at 37° C., 10% carbon dioxide and 90% relative humidity. […] The assay plate was allowed to sit for 30 min at room temperature and then the plate was read on EnVision.
measurementLabel: IC50

Please review the entries below; each comes with its answer.
# compound, IC50
rows = [
    ("C[C@H]1C[C@@H](NC(=O)CC(C)(C)CN)CN(c2ccc(C(F)F)c3nccnc23)C1", "< 1000 nM"),
    ("Cc1ncc(N2C[C@@H](C)C[C@@H](NC(=O)[C@@H](O)C3CC3)C2)c2cccnc12", "1000 to 10000 nM"),
    ("C[C@H]1C[C@@H](NC(=O)CC2CCN(C)C2)CN(c2ccc(C#N)c3nccnc23)C1 (some centres unmarked)", "< 1000 nM"),
    ("C[C@H]1C[C@@H](NC(=O)N2C[C@@H](F)[C@@H](F)C2)CN(c2ccc(C(F)(F)F)c3ncccc23)C1", "1000 to 10000 nM"),
]

Field IC50 (entry C[C@@H]1CN(c2ncc(F)c3nccnc23)C[C@H](C)O1 ) reads > 10000 nM

Measured IC50, C[C@H]1C[C@@H](NC2CCN(C)C2=O)CN(c2ccnc3nccnc23)C1 (some centres unmarked) : > 10000 nM

Form field IC50, entry C[C@H]1C[C@@H](NC(=O)Cc2cn(C)cn2)CN(c2ccc(C#N)c3nccnc23)C1 : < 1000 nM

====

target: TLR7/NFKb HEK cells (Homo sapiens)
protocolNotes: HEK Cell Assay (TLR7/NFKb reporter, Steady-Glo luciferase readout)
assaySetup: 30 min compound preincubation, then R*48 agonist for 5 hours, read-out: Potency
Listed below: IC50 values for each entry.

# compound, reading
data = [
    ("CC(C)(C)CC(=O)N[C@H]1CN(c2ccc(C#N)c3nccnc23)CC(C)(C)C1", "< 1000 nM"),
    ("Cn1ncc2c(N3CCC(C(=O)NCCN4CCCCC4)CC3)ncnc21", "1000 to 10000 nM"),
    ("CC1(C)C[C@@H](NC(=O)C(N)C(F)(F)F)CN(c2ccc(C#N)c3nccnc23)C1 (single isomer, unassigned) [Compound 212]", "1000 to 10000 nM"),
]

Field IC50 (entry C[C@H]1C[C@@H](NC(=O)CN2CCN(C)CC2)CN(c2ccc(C#N)c3nccnc23)C1 ) reads < 1000 nM

The reported IC50 of the compound N#Cc1ccc(N2CC(N)CC(C3CC3)C2)c2nccnc12 (single isomer, unassigned) [Compound 70] was < 1000 nM

Query C[C@H]1C[C@@H](NC(=O)CC(C)(C)C)CN(c2ccc(C(F)(F)F)c3ncccc23)C1 yields IC50 of < 1000 nM

Item: CC(C)[C@H](O)C(=O)N[C@@H]1C[C@H](C)CN(c2ccc(C(N)=O)c3ncccc23)C1 | IC50: > 10000 nM

Value of IC50 reported for the compound CC(C)(C)NCC(=O)NCC1CCN(c2ccnc3nccnc23)CC1 is 1000 to 10000 nM

For C[C@@H]1CN(c2ccnc3nccnc23)C[C@H](CN2CCC(N3CCCC3)CC2)O1 the compound record lists IC50 as 1000 to 10000 nM

====

Each record here notes measured IC50.
target: TLR7/NFKb HEK cells (Homo sapiens, UniProt Q9NYK1)
protocolNotes: HEK Cell Assay (TLR7/NFKb reporter, Steady-Glo luciferase readout)
assaySetup: 30 min compound preincubation, then R*48 agonist for 5 hours, read-out: Potency
Structures can show the parent of a compound that is named as a salt.

Record excerpt, results attached:
# molecule, IC50
records = [
    ("Cc1ncc(N2C[C@@H](C)C[C@@H](NC(=O)CC3CN(C(=O)OC(C)(C)C)C3)C2)c2cccnc12", "1000 to 10000 nM"),
    ("C[C@H]1C[C@@H](NC(=O)CO)CN(c2ccc(C(F)(F)F)c3ncccc23)C1", "< 1000 nM"),
    ("C[C@H]1C[C@@H](NC(=O)CN2CCOCC2)CN(c2ccc(C(F)(F)F)c3ncccc23)C1", "< 1000 nM"),
    ("N#Cc1ccc(N2C[C@@H](NC(=O)CN3CCOCC3)C[C@@H](C(F)(F)F)C2)c2nccnc12 (relative stereo)", "1000 to 10000 nM"),
    ("N#Cc1ccc(N2CCC(F)C(N)C2)c2nccnc12 (centres unmarked) [Compound 524, hydrochloride]", "1000 to 10000 nM"),
]

// IC50 value for C[C@H]1C[C@@H](NC(=O)CC(C)(C)CN)CN(c2ccc(C(F)(F)F)c3nccnc23)C1 : < 1000 nM

Consider C#CCC(=O)N[C@@H]1C[C@H](C)CN(c2ccc(C(F)(F)F)c3ncccc23)C1 . Its measured IC50 is < 1000 nM

Recorded IC50 (molecule N#Cc1ccc(N2CCC(C(=O)NCCN3CCCC3)CC2)c2cccnc12 ): < 1000 nM

The reported IC50 of the molecule Cc1ncc(N2C[C@@H](C)C[C@@H](NC(=O)CC3CN(C)C3)C2)c2cccnc12 was 1000 to 10000 nM

====

The following compounds are listed with their measured pIC50 values.
target: TLR7/NFKb HEK cells (Homo sapiens, UniProt Q9NYK1)
Construct: expressed in transfected cells; host or cells: HEK cells (TLR7/NFKb reporter line)
Sequence (Q9NYK1 27-1049): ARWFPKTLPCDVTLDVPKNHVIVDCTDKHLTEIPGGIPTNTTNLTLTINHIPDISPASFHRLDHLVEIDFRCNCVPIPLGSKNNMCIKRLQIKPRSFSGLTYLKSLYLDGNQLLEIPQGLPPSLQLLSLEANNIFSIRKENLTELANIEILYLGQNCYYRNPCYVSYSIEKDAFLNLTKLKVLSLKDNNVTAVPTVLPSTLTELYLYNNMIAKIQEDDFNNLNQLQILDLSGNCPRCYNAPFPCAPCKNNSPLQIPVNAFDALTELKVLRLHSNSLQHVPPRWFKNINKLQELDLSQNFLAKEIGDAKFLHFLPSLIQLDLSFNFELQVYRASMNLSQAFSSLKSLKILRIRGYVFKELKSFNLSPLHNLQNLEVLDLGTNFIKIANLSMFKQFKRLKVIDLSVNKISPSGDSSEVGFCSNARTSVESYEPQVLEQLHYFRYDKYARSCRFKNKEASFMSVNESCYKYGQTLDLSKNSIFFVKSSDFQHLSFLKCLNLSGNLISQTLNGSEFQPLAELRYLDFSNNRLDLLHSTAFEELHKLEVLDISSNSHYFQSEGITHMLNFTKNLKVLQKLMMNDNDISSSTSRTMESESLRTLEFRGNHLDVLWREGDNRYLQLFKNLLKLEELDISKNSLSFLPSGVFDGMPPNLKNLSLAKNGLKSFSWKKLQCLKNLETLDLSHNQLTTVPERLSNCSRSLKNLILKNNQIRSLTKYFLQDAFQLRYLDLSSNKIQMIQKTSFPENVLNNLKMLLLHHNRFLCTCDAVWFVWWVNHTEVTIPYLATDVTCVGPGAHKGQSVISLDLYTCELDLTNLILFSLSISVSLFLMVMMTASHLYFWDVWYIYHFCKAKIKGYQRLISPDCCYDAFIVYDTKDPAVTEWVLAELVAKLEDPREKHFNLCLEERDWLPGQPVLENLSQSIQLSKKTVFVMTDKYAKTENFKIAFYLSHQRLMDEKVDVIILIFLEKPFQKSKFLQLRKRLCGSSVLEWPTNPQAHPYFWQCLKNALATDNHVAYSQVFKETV
protocolNotes: HEK Cell Assay (TLR7/NFKb reporter, Steady-Glo luciferase readout)
Type: cell-based
assaySetup: 30 min compound preincubation, then R*48 agonist for 5 hours, read-out: Potency
pIC50: −log10 of the molar value.

Examples with their reported pIC50 follow.
# compound, reading
measured = [
    ("C[C@H]1C[C@@H](NC2CCOC2)CN(c2ccnc3nccnc23)C1 (some centres unmarked) [Compound 139]", "< 5.00"),
    ("CCN(C)[C@@H](C)C(=O)N[C@@H]1C[C@H](C)CN(c2ccc(C#N)c3nccnc23)C1 [Compound 99]", "> 6.00"),
    ("CN1CCC(CNC(=O)C2CN(c3ccc(C#N)c4ncccc34)CC(F)(F)C2)CC1 (centres unmarked) [Compound 531]", "> 6.00"),
    ("CC(C(=O)N[C@@H]1C[C@H](C)CN(c2ccc(C(F)(F)F)c3ncccc23)C1)N1CC(F)(F)C1 (some centres unmarked) [Compound 287]", "> 6.00"),
]

Read the next record carefully.
Sample CC(C)[C@H](O)C(=O)NC1CC(C(F)(F)F)CN(c2ccc(C#N)c3nccnc23)C1 (single isomer, unassigned) [Compound 88] ; pIC50 observed: > 6.00
